# assay-info: chemical genetic growth profiling, strain panel (AID 1159580);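 note: tested at 20 µM; growth read once vehicle control cultures reached saturation at 30 °C; 1 = growth at the plate median or of vehicle wells; lower values mean less growth of the strain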
# assay-conditions: S. cerevisiae deletion strains, growth OD, locus YAL030W, strain snc1
Screen size: about 5,500 compounds; about 2,000 (36%) were called active. Not shown: some 18% with an inconclusive outcome. Cut-off read from the data, not from the text of the source: active = normalized growth mostly below about 0.91 (no sharp cut-off); inconclusive = no clear call, values can overlap the other calls; inactive = mostly above about 0.92. Some of the results follow.
The categories you may choose from are 1 (active), 0 (inactive)

Before answering, review these 3 worked examples.
{"compound": "Cc1c(Nc2ncccc2C(=O)O)cccc1C(F)(F)F", "classification": 0}
{"compound": "CC(=O)O[C@H]1C[C@@H](OC(C)=O)C(C)(C)C2C[C@@H](OC(C)=O)[C@@]3(C)C4=CC(=O)O[C@@H](c5ccoc5)[C@]4(C)CCC3[C@]21C (some centres undefined)", "classification": 0}
{"compound": "CC(=O)O[C@@H]1C[C@@]2(C)[C@H](c3ccoc3)C[C@H]3O[C@]32[C@]2(C)C(=O)C(O)=C3C(C)(C)C(=O)C=C[C@]3(C)C12 (some centres undefined)", "classification": 0}

Req: Outcome logged for O=C(O)c1ccccc1Nc1ccccc1 in this assay:
Resp: 0

Req: Outcome logged for CC(C)(C)NC[C@@H](O)COc1nsnc1N1CCOCC1 in this assay:
Resp: 0

Req: Outcome logged for Cc1c(O)c(O)cc2c1CC=C1[C@@]2(C)CC[C@@]2(C)C3C[C@](C)(C(=O)O)CC[C@]3(C)CC[C@]12C (some centres undefined) in this assay:
Resp: 1

Req: Outcome logged for Nc1ncn([C@@H]2O[C@H](CO)[C@@H](O)[C@H]2O)c(=O)n1 in this assay:
Resp: 0

Req: Outcome logged for Cc1ccc(/C(=C\CN2CCCC2)c2ccccn2)cc1 in this assay:
Resp: 0

Req: Outcome logged for C[C@H]1[C@H]2CCC3C4CC=C5C[C@@H](N(C)C)CC[C@]5(C)C4CC[C@@]32CN1C (some centres undefined) in this assay:
Resp: 0

Origin of the recorded values: PubChem BioAssay AID1159580
